Tested on: Staphylococcus aureus
assay-details: Antibacterial activity against Staphylococcus aureus ATCC 25923 after 24 hrs by broth dilution technique
Format: functional
measurement-context: ATCC-25923, 24 h
endpoint-name: MIC (µg/mL)

Recorded results for 6 compounds are shown here.
CCCCCCCCCCCCCCCC(=O)Nc1ccccc1O | 50
CCCCCC[C@@H](O)C/C=C\CCCCCCCC(=O)N(C(=O)NC1CCCCC1)C1CCCCC1 | 50
C=CCCCCCCCCC(=O)Nc1ccccc1O | 100
CCCCCCCCCCCCCCCCCC(=O)N(C(=O)NC1CCCCC1)C1CCCCC1 | 50
CCCCCCCCCCCCCCCCCC(=O)Nc1ccccc1O | 100
CCCCCCCC/C=C\CCCCCCCC(=O)Nc1ccccc1O | 100

A = CCCCC/C=C\CC[C@H](O)CCCCCCCC(=O)N(C(=O)NC1CCCCC1)C1CCCCC1
B = CCCCCCCCCCCCCCCC(=O)N(C(=O)NC1CCCCC1)C1CCCCC1
// query Could you tell me which of these two has the smaller MIC figure? First: A Second: B // caller expects the label of the chosen entry
// result A
(A: 25 µg/mL, B: 50 µg/mL)

1 = CCCCC/C=C\CC[C@H](O)CCCCCCCC(=O)Nc1ccccc1O
2 = CCCCCC[C@@H](O)C/C=C\CCCCCCCC(=O)Nc1ccccc1O
// query # returns the entry with the larger MIC; inputs 1 and 2 // caller expects the label of the chosen entry
// result 2
